Target sequence: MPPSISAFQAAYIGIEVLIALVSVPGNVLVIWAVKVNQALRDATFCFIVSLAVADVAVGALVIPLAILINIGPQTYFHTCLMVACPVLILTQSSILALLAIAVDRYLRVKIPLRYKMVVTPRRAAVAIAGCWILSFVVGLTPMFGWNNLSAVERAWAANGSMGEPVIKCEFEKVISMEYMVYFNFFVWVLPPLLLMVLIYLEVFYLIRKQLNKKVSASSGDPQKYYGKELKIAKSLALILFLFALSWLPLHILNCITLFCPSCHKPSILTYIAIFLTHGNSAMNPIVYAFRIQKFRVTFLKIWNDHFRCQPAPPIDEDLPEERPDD
Recorded measurements of Ki, one per entry
Put your answer as a value accompanied by its unit after it.

Before answering, review these 2 worked examples.
Smiles | Ki
Cc1cc(C)n(-c2cc(NC(=O)CN3CCN(C)CC3)nc(-c3ccccn3)n2)n1 | 4400 nM
CN1CCN(CC(=O)Nc2cc(-n3cccn3)nc(-c3ccccn3)n2)CC1 | 930 nM

Now look at this entry.
Exercise: If you can, please state the reported Ki value of "Cc1ccc(-c2nc(NC(=O)CN3CCN(C)CC3)cc(-c3nccs3)n2)o1" .
Key: 720 nM
